Data provenance is patent US20190161551A1.

Measured EC50 (M), SRE-luciferase, No BDNF, listed per entry.
- SYSTEM: mouse TrkB extracellular domain fused to the transmembrane and cytoplasmic domains of human TrkB, expressed … (mouse; human, UniProt Q16620 431-822, limits assumed)
- Sequence (Q16620 other isoform, or with tags, fused parts or gaps limits assumed, form in doubt): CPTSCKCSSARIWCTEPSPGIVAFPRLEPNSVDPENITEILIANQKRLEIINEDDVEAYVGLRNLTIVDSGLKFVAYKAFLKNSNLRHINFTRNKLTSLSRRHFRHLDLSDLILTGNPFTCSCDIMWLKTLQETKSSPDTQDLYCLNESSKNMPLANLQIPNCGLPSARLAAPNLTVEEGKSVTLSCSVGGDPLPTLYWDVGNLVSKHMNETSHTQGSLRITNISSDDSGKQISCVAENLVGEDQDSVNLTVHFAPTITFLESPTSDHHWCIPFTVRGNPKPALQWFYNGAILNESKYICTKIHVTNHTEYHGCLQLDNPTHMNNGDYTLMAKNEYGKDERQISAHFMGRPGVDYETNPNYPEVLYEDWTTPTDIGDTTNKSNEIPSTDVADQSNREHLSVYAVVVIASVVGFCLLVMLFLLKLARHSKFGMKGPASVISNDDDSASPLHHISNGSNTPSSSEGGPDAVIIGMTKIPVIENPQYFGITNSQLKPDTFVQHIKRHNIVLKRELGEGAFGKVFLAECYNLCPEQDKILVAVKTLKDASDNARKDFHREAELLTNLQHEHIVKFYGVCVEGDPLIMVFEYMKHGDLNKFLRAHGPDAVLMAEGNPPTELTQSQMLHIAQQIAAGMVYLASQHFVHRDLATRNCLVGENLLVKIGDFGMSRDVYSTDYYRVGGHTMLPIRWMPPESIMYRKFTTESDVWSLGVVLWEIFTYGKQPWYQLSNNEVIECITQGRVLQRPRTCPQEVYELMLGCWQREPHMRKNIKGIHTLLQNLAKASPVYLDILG
- MEASUREMENT_NOTES: cell-based or functional assay
OUTCOME_MEASURE: EC50 (M), SRE-luciferase, No BDNF

INSERT INTO results (binder, reported_value) VALUES
  ('M2aM14178N (antibody, mouse IgG2a, V domains shown, Anti-mouse TrkB antibody from hybridoma, mouse IgG2a Fc; also called surrogate anti-mouse TrkB antibody) VH: EVQLVESGGGLVKPGGSLKLSCTASGFTFSSYAMSWVRQTPEKRLEWVANISDGGTYTYYPDNIKGRFTISRDNAKNNLYLQMSHLESEDTAMYYCIRGDVYYVRFAYWGQGTLVTVSA VL: QAVVTQESALTTSPGETVTLTCRSSTGAVTSSNHANWVQEKPDHLFTGLIGGTNNRAPGVPARFSGSLIGDKAALTITGAQTEDEAIYFCALWHSNHWVFGGGTKLTVLG', '1.9e-10'),
  ('M2aM14179N (antibody, mouse IgG2a, kappa, V domains shown, Anti-mouse TrkB antibody from hybridoma, mouse IgG2a Fc; also called surrogate anti-mouse TrkB antibody) VH: EVQLQQSGPELVKPGASVKISCKASGYTLTDYYMNWVKQSHGKSLEWIGDINPNNGGTSYNQKFKGKATLTVDKSSSTAYMELRSLTSEDSAVYYCARGAYYSNYFDYWGQGTTLTVSS VL: DIVMSQSPSSLAVSAGEKVTMSCKSSQSLLNSRTRKNYLAWYQQKPGQSPKLLIYWASTRESGVPDRFTGSGSGTDFTLTISSVQAEDLAVYYCKQSYILFTFGSGTQLEIKR', '3.4e-11'),
  ('H1M8037C (antibody, mouse IgG1, kappa, V domains shown, captured by anti-mFc in SPR; also called Comparator; comparator anti-TrkB monoclonal antibody) VH: QVQLVQSGAEVKKPGASVKVSCKASGYTFTNYDIIWVRQAPGQGLEWMGYINPYNDGTKYNEKFKGRVTMTRDTSTSTVYMELSSLRSEDTAVYYCARLLKYRRFRYYAIDYWGQGTTVTVSS VL: DIQMTQSPSSLSASVGDRVTITCRTSENVYSNLAWYQQKPGKAPKLLIYAASNLQSGVPSRFSGSGSGTDYTFTISSLQPEDIATYYCQHFWGSPFTFGQGTKLEIKR', '4.3e-11'),
  ('M2aM14173N (antibody, mouse IgG2a, kappa, V domains shown, Anti-mouse TrkB antibody from hybridoma, mouse IgG2a Fc; also called surrogate anti-mouse TrkB antibody) VH: NVSLVESGGGSVKPGGSLQLSCAASGFTFSSSAMSWIRQTPEMRLEWVATISDRGSYTYYPDSVEGRFTISRDNAKNILYLQMSHLMSEDTAMYYCARGKGEKAYYTAFFAYWGQGSLVTVSA VL: DIQMTQSPASLSASVGETVTITCRASENIYSYLAWYQQKPGKSPHLLVHNAETLAEGVPSRFSGSGSGPQFSLKINSLQPGDSGTYYCQHHYSSPWTFGGGTKLEIKR', '3.6e-11');
